Cited source: patent US9481648B2

Experiment: Plasma pharmacokinetics in rats, single intravenous or oral administration
Type: in vivo, rat (male Wistar)
Settings: male, Wistar, rat, plasma; rats, intravenous 0.25 mg/kg
measurement kind: AUC(0-t)
Write the quantity with the unit trailing the number.

Before answering, review these 3 worked examples.
COc1cc(Nc2cc(Oc3ccc(NC(=O)Nc4cc(C(C)(C)C)cc(NS(C)(=O)=O)c4OC)c4ccccc34)ccn2)cc(C(=O)NCCN2CCOCC2)c1 ... 588 ng·h/mL
CNC(=O)c1cc(C(C)(C)C)cc(NC(=O)Nc2ccc(Oc3ccnc(Nc4cc(OC)cc(OCCOCCOCCOC)c4)c3)c3ccccc23)c1OC ... 293 ng·h/mL
COCCOCCOCCOc1cc(Nc2nccc(Oc3ccc(NC(=O)Nc4cc(C(C)(C)C)cc(NS(C)(=O)=O)c4OC)c4ccccc34)n2)cc(OC)c1 ... 558 ng·h/mL

Given the molecule COc1c(NC(=O)Nc2ccc(Oc3ccnc(Nc4ccccc4)c3)c3ccccc23)cc(C(C)(C)C)cc1C(=O)NC1COC1 , write its reported AUC(0-t).
948 ng·h/mL

Given the molecule COCCOCCOCCNC(=O)c1cc(Nc2cc(Oc3ccc(NC(=O)Nc4cc(C(C)(C)C)cc(NS(C)(=O)=O)c4OC)c4ccccc34)ccn2)cc(OC)c1 , write its reported AUC(0-t).
820 ng·h/mL

###

Assay: Plasma pharmacokinetics in rats, single intravenous or oral administration
Assay type: in vivo, rat (male Wistar)
Conditions: rats, oral 5 mg/kg; vehicle C (Example 4) or B
measurement kind: Fpo (%)
Give the quantity in %, number only.

Before answering, review these 2 worked examples.
COc1cc(Nc2cc(Oc3ccc(NC(=O)Nc4cc(C(C)(C)C)cc(NS(C)(=O)=O)c4OC)c4ccccc34)ccn2)cc(C(=O)NCCN2CCOCC2)c1 ... 0.0
COCCOCCOCCOc1cc(Nc2nccc(Oc3ccc(NC(=O)Nc4cc(C(C)(C)C)cc(NS(C)(=O)=O)c4OC)c4ccccc34)n2)cc(OC)c1 ... 0.2

Given the compound COCCOCCOCCNC(=O)c1cc(Nc2cc(Oc3ccc(NC(=O)Nc4cc(C(C)(C)C)cc(NS(C)(=O)=O)c4OC)c4ccccc34)ccn2)cc(OC)c1 , write its reported Fpo.
0.0

Given the compound COc1c(NC(=O)Nc2ccc(Oc3ccnc(Nc4ccccc4)c3)c3ccccc23)cc(C(C)(C)C)cc1C(=O)NC1COC1 , write its reported Fpo.
0.1

Given the compound C#Cc1cc(Nc2nccc(Oc3ccc(NC(=O)Nc4cc(C(C)(C)C)cc(NS(C)(=O)=O)c4OC)c4ccccc34)n2)cc(C(=O)NCCOCCOCCOC)c1 , write its reported Fpo.
0.0

###

Test: Plasma pharmacokinetics in rats, single intravenous or oral administration
Format: in vivo, rat (male Wistar)
Details: male, Wistar, rat, plasma, po, 5 mg/kg
measurement kind: AUC(0-inf) (ng·h/mL)
Give the quantity in ng·h/mL, number only.

Given the compound COCCOCCOCCOc1cc(Nc2nccc(Oc3ccc(NC(=O)Nc4cc(C(C)(C)C)cc(NS(C)(=O)=O)c4OC)c4ccccc34)n2)cc(OC)c1 , write its reported AUC(0-inf).
40.8

###

Assay: Plasma pharmacokinetics and total colon tissue distribution in mice, single oral administration
Type: in vivo, mouse (male C57BL/6)
Details: male, C57BL/6, mouse, plasma, 5 mg/kg, read-out: Median plasma concentration
measurement kind: concentration at 6 h (ng/mL)
Give the quantity in ng/mL, number only.

COc1c(NC(=O)Nc2ccc(Oc3ccnc(Nc4ccccc4)c3)c3ccccc23)cc(C(C)(C)C)cc1C(=O)NC1COC1 ... 0

Given the molecule COCCOCCOCCNC(=O)c1cc(Nc2cc(Oc3ccc(NC(=O)Nc4cc(C(C)(C)C)cc(NS(C)(=O)=O)c4OC)c4ccccc34)ccn2)cc(OC)c1 , write its reported concentration at 6 h.
114

###

// endpoint pIC50 / system GSK 3α (Homo sapiens (Human))
# pIC50 is unitless: minus log10 of the molar concentration; print number only

Write pIC50 of C#Cc1cc(Nc2cc(Oc3ccc(NC(=O)Nc4cc(C(C)(C)C)cc(C(=O)NC)c4OC)c4ccccc34)ccn2)cc(C(=O)NCCN2CCOCC2)c1 ; system used: GSK 3α (Homo sapiens (Human))
5.80

Write pIC50 of COCCOCCOCC[S+]([O-])c1cc(Nc2cc(Oc3ccc(NC(=O)Nc4cc(C(C)(C)C)cc(NS(C)(=O)=O)c4OC)c4ccccc34)ccn2)cc(OC)c1 (stereo not drawn) ; system used: GSK 3α (Homo sapiens (Human))
6.06

Write pIC50 of C#Cc1cc(Nc2cc(Oc3ccc(NC(=O)Nc4cc(C(C)(C)C)cc(NS(C)(=O)=O)c4OC)c4ccccc34)ccn2)cc(C(=O)NCCOCCOCCOC)c1 ; system used: GSK 3α (Homo sapiens (Human))
4.92

###

Target: GSK 3α (Homo sapiens (Human), UniProt P49840)
Sequence (P49840 whole entry): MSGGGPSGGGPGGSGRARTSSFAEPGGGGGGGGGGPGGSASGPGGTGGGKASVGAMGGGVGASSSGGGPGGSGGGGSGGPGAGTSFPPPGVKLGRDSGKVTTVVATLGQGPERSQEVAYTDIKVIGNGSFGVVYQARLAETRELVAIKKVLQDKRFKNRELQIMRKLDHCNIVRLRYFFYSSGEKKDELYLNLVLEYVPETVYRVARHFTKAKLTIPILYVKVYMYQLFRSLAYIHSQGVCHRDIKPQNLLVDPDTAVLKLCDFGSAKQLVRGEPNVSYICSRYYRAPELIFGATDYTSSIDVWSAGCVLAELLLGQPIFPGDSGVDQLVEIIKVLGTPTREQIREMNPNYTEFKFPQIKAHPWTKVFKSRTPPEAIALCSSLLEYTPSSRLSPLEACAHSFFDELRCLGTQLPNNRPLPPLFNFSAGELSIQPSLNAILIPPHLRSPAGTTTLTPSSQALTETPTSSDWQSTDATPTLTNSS
Each entry below lists one item and its recorded IC50 value.
Give the quantity in nM, number only.

Before answering, review these 2 worked examples.
COc1cc(Nc2cc(Oc3ccc(NC(=O)Nc4cc(C(C)(C)C)cc(C(N)=O)c4OC)c4ccccc34)ccn2)cc(C(=O)NCCN2CCOCC2)c1 ... 1600
COCCOCCOCCOc1cc(Nc2nccc(Oc3ccc(NC(=O)Nc4cc(C(C)(C)C)cc(C#N)c4OC)c4ccccc34)n2)cc(OC)c1 ... 2140

// switching to the query compound
Given the compound C#Cc1cc(Nc2cc(Oc3ccc(NC(=O)Nc4cc(C(C)(C)C)cc(C(N)=O)c4OC)c4ccccc34)ccn2)cc(C(=O)NCCN2CCOCC2)c1 , write its reported IC50.
5030

###

Assay: Plasma pharmacokinetics in rats, single intravenous or oral administration
Assay type: in vivo, rat (male Wistar)
Details: male, Wistar, rat, plasma, po, 5 mg/kg; read-out: Median plasma concentration
Procedure: Studies were conducted by Sai Life Sciences (Hinjewadi, Pune, India) to investigate the plasma pharmacokinetics and total colon tissue distribution of compounds of the invention. In particular, pharmacokinetic studies were carried out in: • male C57BL/6 mice, following a single oral administration; and • male Wistar rats following a single intravenous or oral administration.
measurement kind: concentration at 24 h (ng/mL)
Give the quantity in ng/mL, number only.

Given the compound COc1c(NC(=O)Nc2ccc(Oc3ccnc(Nc4ccccc4)c3)c3ccccc23)cc(C(C)(C)C)cc1C(=O)NC1COC1 , write its reported concentration at 24 h.
0

###

Assay: Plasma pharmacokinetics in rats, single intravenous or oral administration
Type: in vivo, rat (male Wistar)
Conditions: male, Wistar, rat, plasma, po, 5 mg/kg; read-out: Median plasma concentration
measurement kind: concentration at 12 h (ng/mL)
Give the quantity in ng/mL, number only.

Given the molecule COc1c(NC(=O)Nc2ccc(Oc3ccnc(Nc4ccccc4)c3)c3ccccc23)cc(C(C)(C)C)cc1C(=O)NC1COC1 , write its reported concentration at 12 h.
2.3

###

System: TNBS-induced colitis in BDF1 mice
Assay: TNBS-induced colitis in mice (in vivo iv)
Design: species or system mouse
Settings: TNBS-induced colitis, mice, conducted over 2 days
measurement kind: activity in in vivo model of colonic inflammation (histopathology analysis)

COCCOCCOCCOc1cc(Nc2nccc(Oc3ccc(NC(=O)Nc4cc(C(C)(C)C)cc(NS(C)(=O)=O)c4OC)c4ccccc34)n2)cc(OC)c1 [Example 4] ... substantial activity
COc1cc(Nc2cc(Oc3ccc(NC(=O)Nc4cc(C(C)(C)C)cc(NS(C)(=O)=O)c4OC)c4ccccc34)ccn2)cc(C(=O)NCCN2CCOCC2)c1 [Example 27] ... substantial activity
COCCOCCOCCNC(=O)c1cc(Nc2cc(Oc3ccc(NC(=O)Nc4cc(C(C)(C)C)cc(NS(C)(=O)=O)c4OC)c4ccccc34)ccn2)cc(OC)c1 [Example 3] ... substantial activity
COCCOCCOCCOc1cc(Nc2cc(Oc3ccc(NC(=O)Nc4cc(C(C)(C)C)cc(C(N)=O)c4OC)c4ccccc34)ccn2)cc(OC)c1 [Example 34] ... substantial activity

###

Assay: Plasma pharmacokinetics and total colon tissue distribution in mice, single oral administration
Format: in vivo, mouse (male C57BL/6)
Conditions: male, C57BL/6, mouse, plasma, 5 mg/kg, read-out: Median plasma concentration
measurement kind: concentration at 4 h (ng/mL)
Give the quantity in ng/mL, number only.

Given the molecule COc1c(NC(=O)Nc2ccc(Oc3ccnc(Nc4ccccc4)c3)c3ccccc23)cc(C(C)(C)C)cc1C(=O)NC1COC1 , write its reported concentration at 4 h.
0

###

Experiment: Plasma pharmacokinetics in rats, single intravenous or oral administration
Type: in vivo, rat (male Wistar)
Settings: rats, intravenous 0.25 mg/kg
// NB: equality with 5 mL/min/kg counts as Criterion not met; only CI strictly below is Criterion met

As a guide, the following entries are already answered.
COc1c(NC(=O)Nc2ccc(Oc3ccnc(Nc4ccccc4)c3)c3ccccc23)cc(C(C)(C)C)cc1C(=O)NC1COC1 [Example 75] ... Criterion met
COCCOCCOCCOc1cc(Nc2nccc(Oc3ccc(NC(=O)Nc4cc(C(C)(C)C)cc(NS(C)(=O)=O)c4OC)c4ccccc34)n2)cc(OC)c1 [Example 4] ... Criterion not met

For COc1cc(Nc2cc(Oc3ccc(NC(=O)Nc4cc(C(C)(C)C)cc(NS(C)(=O)=O)c4OC)c4ccccc34)ccn2)cc(C(=O)NCCN2CCOCC2)c1 [Example 27] , is the recorded CI below the cut-off of 5 mL/min/kg?
Criterion not met

For CNC(=O)c1cc(C(C)(C)C)cc(NC(=O)Nc2ccc(Oc3ccnc(Nc4cc(OC)cc(OCCOCCOCCOC)c4)c3)c3ccccc23)c1OC [Example 29] , is the recorded CI below the cut-off of 5 mL/min/kg?
Criterion not met
